Each recorded value in this set is attributed to ChEMBL document CHEMBL1126044.

Reported Activity by item:
Biological target: Growth hormone-releasing hormone receptor (Rattus norvegicus) (UniProt Q02644)
Sequence (whole entry): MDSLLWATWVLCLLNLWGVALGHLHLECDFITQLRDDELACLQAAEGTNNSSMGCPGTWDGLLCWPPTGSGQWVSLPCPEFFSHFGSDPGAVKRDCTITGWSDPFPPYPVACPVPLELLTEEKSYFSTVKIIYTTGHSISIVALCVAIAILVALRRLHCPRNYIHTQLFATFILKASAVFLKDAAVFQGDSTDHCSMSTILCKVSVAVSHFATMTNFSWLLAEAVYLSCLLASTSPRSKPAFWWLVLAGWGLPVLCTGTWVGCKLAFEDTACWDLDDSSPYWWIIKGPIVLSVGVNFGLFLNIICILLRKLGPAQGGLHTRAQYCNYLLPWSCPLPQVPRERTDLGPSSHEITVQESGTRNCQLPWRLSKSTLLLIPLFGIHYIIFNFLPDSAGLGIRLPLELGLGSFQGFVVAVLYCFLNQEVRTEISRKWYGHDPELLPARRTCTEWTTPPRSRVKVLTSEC
Experiment: Relative affinity compared to hGRF(1-29)NH2
Format: functional

substance	Activity
H-YADAIFTNSYRKVLGQLSARKLLQDIMS-NH2	28%
H-YADAIFTNSYRKVLGQLSARKLLQDIR-NH2	4.6%
H-YADAIFTNSYRKVLGQLSARKLLQDMSR-NH2	30%
H-YADAIFTNSYRVLGQLSARKLLQDIMSR-NH2	0.7%
H-YADAIFTNSYRKVLGQLSARKLLQDISR-NH2	62%
H-YADAIFTNSYRKVLGQLSLLQDIMSR-NH2	0.6%
H-ADAIFTNSYRKVLAQLSARKLLQDIMSR-NH2	1.5%
H-YADAIFTNSYRKVLGQLSARKLLQIMSR-NH2	33%
H-YADAIFTSYRKVLGQLSARKLLQDIMSR-NH2	5.9%
H-ADAIFTSSYRRILGQLYARKLLHEIMNR-NH2	13%
H-YADAIFTNSYRKVLGQLSARKLLDIMSR-NH2	12%
H-HADAIFTSSYRRILGQLYARKLLHEIMNR-NH2	57%
H-YADAIFTNSYRKVLGQLSARKLLQDIMR-NH2	78%
H-DAIFTNSYRKVLAQLSARKLLQDIMSR-NH2	1.8%

====

Target: Growth hormone-releasing hormone receptor (Rattus norvegicus, UniProt Q02644)
Sequence (Q02644 whole entry): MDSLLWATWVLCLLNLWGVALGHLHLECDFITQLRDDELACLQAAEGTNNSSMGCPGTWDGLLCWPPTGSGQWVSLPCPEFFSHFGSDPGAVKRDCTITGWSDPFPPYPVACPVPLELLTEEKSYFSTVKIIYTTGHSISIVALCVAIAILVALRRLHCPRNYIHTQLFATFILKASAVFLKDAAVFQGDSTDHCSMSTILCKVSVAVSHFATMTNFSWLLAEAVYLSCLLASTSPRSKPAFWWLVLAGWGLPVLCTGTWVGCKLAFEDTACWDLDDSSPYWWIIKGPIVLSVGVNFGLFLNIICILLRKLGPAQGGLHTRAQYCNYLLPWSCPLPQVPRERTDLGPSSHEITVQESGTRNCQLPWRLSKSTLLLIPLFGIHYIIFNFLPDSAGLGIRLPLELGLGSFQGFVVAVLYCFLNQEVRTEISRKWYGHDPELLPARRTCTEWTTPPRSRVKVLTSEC
Experiment: Compound was tested to Inhibit [125I]-Growth hormone-releasing factor in rat adenopituitary homogenates
Reported IC50 by item:
readout-label: IC50 (nM)

substance	relational-operator	readout-value
H-YADAIFTNSYRKVLGQLSALLQDIMSR-NH2	>	1000
H-YADAIFTNSYRKVLGQLSARKLLQDIMR-NH2	=	7.2
H-YADAIFTNSYRKVLGQLSARKLLQIMSR-NH2	=	16.9
H-YADAIFTNSYRKVLGQLSARKLLQDIR-NH2	=	120
H-YADAIFTNSYRKVLGQLSARKLLQDMSR-NH2	=	20.3
H-YADAIFTNSYRKVLGQLSARKLLQDISR-NH2	=	9.5
H-ADAIFTNSYRKVLAQLSARKLLQDIMSR-NH2	=	377
H-DAIFTNSYRKVLAQLSARKLLQDIMSR-NH2	=	311
H-ADAIFTSSYRRILGQLYARKLLHEIMNR-NH2	=	44.2
H-YADAIFTSYRKVLGQLSARKLLQDIMSR-NH2	=	95
H-YADAIFTNSYRKVLGQLSARKLLQDIMS-NH2	=	20.2
H-YADAIFTNSYRVLGQLSARKLLQDIMSR-NH2	=	836
H-YADAIFTNSYRKVLQLSARKLLQDIMSR-NH2	=	1000
H-HADAIFTSSYRRILGQLYARKLLHEIMNR-NH2	=	9.8
H-YADAIFTNSYRKVLGQLSARKLLDIMSR-NH2	=	45.2
H-YADAIFTNSYRKLGQLSARKLLQDIMSR-NH2	>	1000
H-YADAIFTNSYRKVLGQLSARLLQDIMSR-NH2	>	1000

====

organism: Rattus norvegicus; assay: Residual concentration after 60 min incubation with pituitary homogenates, in the binding assay conditions, by quantitative HPLC method; type: functional
Label met when Residual peptide remaining after 60 min is strictly below 90%; at or above that, label not met.

substance	classification
H-YADAIFTNSYRKVLGQLSARKLLQDIR-NH2	not met
H-DAIFTNSYRKVLAQLSARKLLQDIMSR-NH2	not met
H-YADAIFTNSYRKVLGQLSARKLLQDIMR-NH2	not met
H-YADAIFTSYRKVLGQLSARKLLQDIMSR-NH2	not met
H-YADAIFTNSYRKVLGQLSARKLLDIMSR-NH2	met
H-ADAIFTSSYRRILGQLYARKLLHEIMNR-NH2	not met

====

species: Rattus norvegicus; assay: Residual concentration after 60 min incubation with pituitary homogenates, in the binding assay conditions, by quantitative HPLC method; type: functional
Reported Residual peptide remaining after 60 min by item:
readout-label: Residual peptide remaining after 60 min (%)

substance	unit-text	readout-value
H-YADAIFTNSYRVLGQLSARKLLQDIMSR-NH2	%	92
H-YADAIFTNSYRKVLQLSARKLLQDIMSR-NH2	%	88
H-YADAIFTNSYRKLGQLSARKLLQDIMSR-NH2	%	89
